Tested on: C6 glioma cells
test description: MTT cell proliferation assay, C6 glioma cells
Type: cell-based
condition parameters: C6 glioma cells, FIG. 1; read-out: IC50, inhibition of C6 glioma cells (MTT assay)
measurement type: IC50 (µM)
Answers are plain numbers, in µM.

Record CCCCCCC(C)(C)c1cc(O)c2c(c1)OC(C)(C)[C@@H]1CC=C(C(=O)O)C[C@@H]21 : what is its IC50 with C6 glioma cells?
55
